Test name: Weight variation (TG) on heating, thermal analyzer EXSTRA6200
Type: physicochemical
Particulars: heated to 250° C. at 20° C./min, nitrogen atmosphere
# strict inequality: weight reduction (TG) < 20% yields condition met, everything else yields condition not met

Molecule: CCCCCCc1csc(-c2ccc(C3=C4C(=O)N(C(=O)OC(C)(C)C)C(c5ccc(-c6cc(CCCCCC)cs6)s5)=C4C(=O)N3C(=O)OC(C)(C)C)s2)c1 [formula (1-17)]
Class assignment: condition not met
//
Molecule: CC(C)(C)OC(=O)N1C(=O)C2=C(c3cccs3)N(C(=O)OC(C)(C)C)C(=O)C2=C1c1cccs1 [formula (1-1)]
Class assignment: condition not met
//
Molecule: CC(C)(C)OC(=O)N1C(=O)C2=C(c3ccc(Br)s3)N(C(=O)OC(C)(C)C)C(=O)C2=C1c1ccc(Br)s1 [formula (1-4)]
Class assignment: condition not met
//
Molecule: CCCCCCc1ccc(-c2ccc(C3=C4C(=O)N(C(=O)OC(C)(C)C)C(c5ccc(-c6ccc(CCCCCC)s6)s5)=C4C(=O)N3C(=O)OC(C)(C)C)s2)s1 [formula (1-12)]
Class assignment: condition not met
//
Molecule: CCCCCCCCCCCCOc1cc(-c2ccc(-c3ccc(C4=C5C(=O)N(C(=O)OC(C)(C)C)C(c6ccc(-c7ccc(-c8cc(OCCCCCCCCCCCC)c(OCCCCCCCCCCCC)c(OCCCCCCCCCCCC)c8)s7)s6)=C5C(=O)N4C(=O)OC(C)(C)C)s3)s2)cc(OCCCCCCCCCCCC)c1OCCCCCCCCCCCC [formula (1-25)]
Class assignment: condition met
//
Molecule: CCCCCCOc1ccc(-c2ccc(C3=C4C(=O)N(C(=O)OC(C)(C)C)C(c5ccc(-c6ccc(OCCCCCC)cc6)s5)=C4C(=O)N3C(=O)OC(C)(C)C)s2)cc1 [formula (1-18)]
Class assignment: condition not met
//
Molecule: CCCCCCCCCCCCOc1cc(-c2ccc(-c3ccc(-c4ccc(C5=C6C(=O)N(C(=O)OC(C)(C)C)C(c7ccc(-c8ccc(-c9ccc(-c%10cc(OCCCCCCCCCCCC)c(OCCCCCCCCCCCC)c(OCCCCCCCCCCCC)c%10)s9)s8)s7)=C6C(=O)N5C(=O)OC(C)(C)C)s4)s3)s2)cc(OCCCCCCCCCCCC)c1OCCCCCCCCCCCC [formula (1-27)]
Class assignment: condition met
